system: EKVX; assay: NCI tumour cell line growth inhibition, 48 h
Calls of active or inactive are those of the source. No stated cut-off is given here; in the data, active = GI50 up to about 1.1 µM and inactive = higher.
Outcomes: T = active, F = inactive

1) CC(O)C(NC(=O)C(CS)NC(=O)C(CO)NC(=O)C(CCCCN)NC(=O)C(Cc1c[nH]c2ccccc12)NC(=O)C(Cc1ccc(O)cc1)NC(=O)C(CS)NC(=O)C(N)Cc1ccccc1)C(N)=O (stereo unspecified)	F
2) CC(N/N=C(\S)N1CCCCCC1)c1cccnn1 (stereo unspecified)	T
3) N#CC(c1ccc(Cl)cc1)c1c(=O)[nH]c2ccc(N)cc2[n+]1[O-] (stereo unspecified)	F
4) O=c1cn[nH]c(=S)n1/N=C/c1c[nH]c2ccccc12	F
5) COc1cc(/C=N\c2ccc(C(C)C)cc2)cc(OC)c1OC	F
6) O=[N+]([O-])/C(C(Cl)=C(Cl)Cl)=C(\Nc1cccc2cccnc12)SCc1ccccc1	F
7) O=C(O)/C=C\C(=O)Nc1ccccn1	F
8) O=C1/C(=C/c2ccc(O)c(O)c2)CC/C1=C\c1ccc(O)c(O)c1	F
9) NC(=O)N/C=C1\C(=O)Oc2ccccc2C1=O	F
10) Nc1nc(SCc2ccc([N+](=O)[O-])cc2)nc2c1ncn2C1OC(COP(=O)(O)O)C(O)C1O (stereo unspecified)	F
11) Cc1c(C(=O)Nc2ccc(Cl)c(C(F)(F)F)c2)oc2cc(O)ccc2/c1=N\NC(N)=S	F
12) CN(C)CCNC(=O)c1cccc2ccc(-c3ccncc3)nc12	F
13) c1ccc2[nH]c(-c3cscn3)nc2c1 [THIABENDAZOLE]	F
14) CCNC(=S)N/N=C(\C)c1cccc(C)n1	F
15) O=C(O)CSCC(=O)Nc1ccc2cccc3c2c1CC3	F
16) COC(=O)N1CCc2c(nc(N(C)CCO)[nH]c2=O)C1	F

* * *

tested on: NCI-H23; test: NCI tumour cell line growth inhibition, 48 h
Activity calls are given as the source filed them. Rule as the data show it: active = GI50 up to about 1.1 µM and inactive = higher.
READOUT_LABEL: GI50

1. O=S(=O)([C-]([I+]c1ccccc1)S(=O)(=O)C(F)(F)C(F)(F)C(F)(F)C(F)(F)F)C(F)(F)C(F)(F)C(F)(F)C(F)(F)F	19.1 µM (inactive)
2. Cc1ccccc1NC(=O)/C(C#N)=N\Nc1[nH]cnc1C(N)=O	32.6 µM (inactive)
3. Nc1ccc(C(=O)NN2C(=O)C(Cl)C2c2ccc([N+](=O)[O-])cc2)cc1 (stereo not drawn)	7 µM (inactive)

* * *

test system: HOP-92; assay: NCI tumour cell line growth inhibition, 48 h
Calls of active or inactive are those of the source. Rule as the data show it: active = GI50 up to about 1.1 µM and inactive = higher.
Outcomes: active, inactive

1. CCOC1c2nc3ccccc3nc2-c2ccccc2N1C(C)=O (stereo not given)	inactive
2. Cc1ccc([Se][Se]c2ccc(C)cc2)cc1	inactive
3. N#CC(C#N)=Cc1c(O)ccc2ccccc12	active
4. C[C@H](CCc1nc(C#N)c(N)o1)[C@H]1CC[C@H]2[C@@H]3[C@@H](O)CC4C[C@@H](O)CC[C@]4(C)[C@H]3C[C@@H](O)[C@]12C (stereo not given in full)	inactive
5. COc1cc2c(cc1OC)-c1cc3cc(OC)c(OC)cc3n1CC2	inactive
6. Cc1ccccc1N(CC(=O)O)S(=O)(=O)c1ccccc1	inactive
7. Nc1nc(Cl)cc(NCC2(CO)CCC(O)C2)n1 (stereo not given)	inactive
8. COC(=N)C12C(N)=NC(OC)(OC)C1(C#N)C21C(=O)N(c2ccccc2)N=C1C (stereo not given)	inactive
9. O=C(O)CCNC(=O)c1cc(N(CCBr)CCBr)c([N+](=O)[O-])cc1[N+](=O)[O-]	inactive
10. O=CCCCCCOCc1ccccc1	inactive
11. CN(C(=O)C12C3(C(=O)O)C4C5(C(=O)O)C3C1(C(=O)O)C5C42C(=O)O)C(C)(C)C (stereo not given)	inactive
12. c1ccc2sc(SCCSc3nc4ccccc4s3)nc2c1	inactive
13. O=[N+]([O-])C(/C=C(\Cl)n1nnc2ccccc21)=C(/Cl)n1nnc2ccccc21	inactive
14. CN(C)c1ccc(/C=C/C(=O)c2cc(C(C)(C)C)c(O)c(C(C)(C)C)c2)cc1	inactive
15. COc1ccc2c(C(=O)c3c(C)n(CCN4CCOCC4)c4ccccc34)cccc2c1	inactive
16. COc1ccc(OC(C)=O)c2c1CCC=CC2=O	inactive
17. CCOC(=O)C(Cc1ccccc1)(Cc1ccc(O)cn1)NC(=O)c1ccccc1 (stereo not given)	inactive
18. COc1ccc(NC(C)=O)c(C(O)CCNC(C)=O)c1 (stereo not given)	inactive
19. O=C(/C=C/c1ccc[nH]1)c1ccccc1	inactive
20. O=C1C(Cl)=C(N2CCN(CCOCCO)CC2)C(=O)c2c(O)ccc(O)c21	active
21. NCCCCCNOCCCN	inactive
22. CC(=O)O[C@@H]1C(=O)N(c2ccccc2)[C@@H]1c1cc2ccccc2c2ccccc12	inactive
23. CC(=O)NC(CCCCN(Cc1ccccc1)C(=O)N(C)N=O)C(=O)NCc1ccccc1 (stereo not given)	inactive
24. O=C1CCC(=O)N1CNc1ccc2c(c1)Sc1ccccc1O2	inactive
25. Nc1ccccc1C(=O)CCc1c[nH]c2ccccc12	inactive
26. OC(CC1CCCCN1)c1ccc2c(c1)oc1ccccc12 (stereo not given)	inactive
27. COc1ccc(-c2csc3c2-n2cccc2C3=O)cc1	inactive
28. Cc1cc(C)n(-c2nc(C)c(CCO)c(=O)[nH]2)n1	inactive
29. C=C(C)CCC(O)[C@](C)(O)[C@H]1[C@H](O)C[C@@]2(C)[C@@H]3CCc4c(cc(OC5OC(CO)C(O)C(O)C5O)c(O)c4C)C3(C)C(=O)C[C@]12C (stereo not given in full)	inactive
30. CN(C)CCNC(=O)c1cccc2ccc(-c3ccncc3)nc12	inactive
